Source listed as paper PMC12142043.

List of EC50 values.
Test system: SARS-CoV-2 (USA-WA1/2020) in Calu-3 cells
Experiment: microbe, parasite or virus in culture
Type: cell-based
Conditions: Severe acute respiratory syndrome coronavirus 2, Calu-3, 48 h; […]; above 30 μM reported as >30; read-out: EC50 (μM) dsRNA
// units = µM; emit number, no label

Please review the entries below; each comes with its answer.
O=S(=O)(c1cccc2cnccc12)N1CCCNCC1 = 0.0124
CCOC(=O)C1=C[C@]2(CC)CCCN3CCc4c(n1c1ccccc41)[C@@H]32 = 25.7
CC(=O)Nc1cccc(-n2c(=O)n(C3CC3)c(=O)c3c(Nc4ccc(I)cc4F)n(C)c(=O)c(C)c32)c1 = 0.398
CN1CCN(c2ccc(OC(F)(F)F)c(Nc3ncc4c(n3)-c3c(c(C(N)=O)nn3CCO)CC4)c2)CC1 = 17.8
Cc1c(Cn2c(C)nc3c(C(=O)O)cc(N4CCOCC4)cc32)cccc1C(F)(F)F = 0.319

Query string: Which EC50 reading was recorded for the compound CC[C@H](Nc1ncnc2[nH]cnc12)c1nc2cccc(F)c2c(=O)n1-c1ccccc1 ?
Result string: 0.0521
